Attribute: mortality at 10 ppm
Test system: Nilaparvata lugens
Assay: Insecticidal activity against imidacloprid-sensitive Nilaparvata lugens (brown planthopper) fourth-instar larvae reared on compound pre-treated rice seedlings assessed as insect mortality at 10 ppm measured after 7 days
Assay type: functional

molecule	mortality at 10 ppm
C#CCN1CCC=C(c2ncns2)C1	30%
Cc1nsc(C2=CCCN(CC#N)C2)n1	10%
C=CCN1CCC=C(c2ncns2)C1	60%
C#CC[n+]1cccc(-c2nc(C)ns2)c1	40%
CCN1CCC=C(c2nc(C)ns2)C1	40%
Cc1nsc(C2=CCCN(CC(C)C)C2)n1	70%
Cc1nsc(C2=CCCN(Cc3ccccc3)C2)n1	10%
Cc1nsc(-c2cccnc2)n1	80%
Cc1nsc(-c2ccc[n+](CC#N)c2)n1	50%
Cc1nsc(C2=CCCN(C)C2)n1	80%
Cc1noc(C2=CCCN(C)C2)n1	70%
CCCCN1CCC=C(c2nc(C)ns2)C1	30%
c1cncc(-c2ncns2)c1	60%
CCC(C)[n+]1cccc(-c2nc(C)ns2)c1 (stereo not given)	90%
Cc1nsc(-c2ccncc2)n1	20%
